Sourced from PubChem BioAssay

TEST METHOD NOTES: CREB reporter modulators without forskolin, primary screen, cell-based, PC12, CRE-LacZ reporter, unstimulated (AID 1145)
REPORTED CONDITIONS: no forskolin, luminescence, 4.5 h, higher = more signal, called active from +8 up or from −8 down
Attribute: z-score

COMPOUND	z-score
CC(C)C[C@H]1NC(=O)[C@@H](C)NC(=O)[C@@]23C(=O)N[C@@H](Cc4ccccc4)C2[C@H](C)[C@@]2(C)O[C@H]2C3/C=C/C/C=C\CNC1=O (some centres undefined)	1.94
COCCOC(=O)N1C(=O)[C@@]2(c3cc(C#CCC(C(=O)OC)C(=O)OC)ccc31)[C@H](c1ccc(OCCO)cc1)N1[C@H](c3ccccc3)[C@H](c3ccccc3)OC(=O)[C@H]1[C@@H]2C(=O)N1CCCCCCC1	-0.467
COc1ccc(CCNC(=O)[C@@]2(Sc3ccc(C)cc3)CC(=O)N(C(C)C)[C@@H]2c2ccc(CO)cc2)cc1	1.56
C=C(CCCC)C(=O)CC[C@H](OC(=O)c1cccnc1)c1ccc(CO)o1	-0.117
